From: paper PMC9972151

Assay: Plitidepsin whole blood pharmacokinetics, non-compartmental
Assay type: in vivo
Conditions: human, iv, Dose level 2 4.0/1.3/40.0, Day 1 of Cycle 1, NCA, mean (SD), n = 3, read-out: V z (apparent volume of distribution during terminal phase)
Numbered stars: 1 amine (or outer) side, 2 acyl side, 3 side chain; on linkers, the order of the positions; unused ones are H or OH. Bridge positions count the residues as written; N and C are the ends. Square brackets hold non-standard residues; d marks the D form. Peptide text beside a SMILES is read from it. * marks the point of attachment. X1 = CC[C@H](C)[C@@H](N[*:1])[C@@H](O)CC(=O)O[C@H](C(=O)[C@H](C)C(=O)[*:2])C(C)C; NMeY = CN[C@@H](Cc1ccc(O)cc1)C(=O)O; dNMeL = CN[C@H](CC(C)C)C(=O)O; Pyruvoyl = CC(=O)C(=O)*
Reported Endpoint: Vd (L)
Kindly answer with a numeric value in L, unit omitted.

Ask: May I ask what Vd has been recorded for CC[C@H](C)[C@H]1NC(=O)[C@@H](NC(=O)[C@@H](CC(C)C)N(C)C(=O)[C@@H]2CCCN2C(=O)C(C)=O)[C@@H](C)OC(=O)[C@H](Cc2ccc(OC)cc2)N(C)C(=O)[C@@H]2CCCN2C(=O)[C@H](CC(C)C)NC(=O)[C@@H](C)C(=O)[C@H](C(C)C)OC(=O)C[C@@H]1O [Plitidepsin, plitidepsin] (Pyruvoyl-P[dNMeL]T[X1]LP[NMeY](Me); ester 3-C (inferred); N-terminus assumed) ?
Result: 394

====

Experiment: Plitidepsin whole blood pharmacokinetics, non-compartmental
Assay type: in vivo
Details: human, iv, Dose level 3 (RD cohort) 5.0/1.3/40.0, Day 1 of Cycle 1, NCA, mean (SD), n = 9, read-out: CL (total clearance) (converted)
Numbered stars: 1 amine (or outer) side, 2 acyl side, 3 side chain; on linkers, the order of the positions; unused ones are H or OH. Bridge positions count the residues as written; N and C are the ends. Square brackets hold non-standard residues; d marks the D form. Peptide text beside a SMILES is read from it. * marks the point of attachment. X1 = CC[C@H](C)[C@@H](N[*:1])[C@@H](O)CC(=O)O[C@H](C(=O)[C@H](C)C(=O)[*:2])C(C)C; NMeY = CN[C@@H](Cc1ccc(O)cc1)C(=O)O; dNMeL = CN[C@H](CC(C)C)C(=O)O; Pyruvoyl = CC(=O)C(=O)*
Reported Endpoint: clearance
For clarity, give the value followed by its unit.

Ask: Query: clearance; subject: CC[C@H](C)[C@H]1NC(=O)[C@@H](NC(=O)[C@@H](CC(C)C)N(C)C(=O)[C@@H]2CCCN2C(=O)C(C)=O)[C@@H](C)OC(=O)[C@H](Cc2ccc(OC)cc2)N(C)C(=O)[C@@H]2CCCN2C(=O)[C@H](CC(C)C)NC(=O)[C@@H](C)C(=O)[C@H](C(C)C)OC(=O)C[C@@H]1O [Plitidepsin, plitidepsin] (Pyruvoyl-P[dNMeL]T[X1]LP[NMeY](Me); ester 3-C (inferred); N-terminus assumed)
Result: 157 mL/min

====

Assay: Plitidepsin whole blood pharmacokinetics, non-compartmental
Assay type: in vivo
Conditions: human, iv, Dose level 3 (RD cohort) 5.0/1.3/40.0, Day 1 of Cycle 1, 3-h i.v. infusion, NCA, UPLC-MS/MS, mean (SD), n = 9
Numbered stars: 1 amine (or outer) side, 2 acyl side, 3 side chain; on linkers, the order of the positions; unused ones are H or OH. Bridge positions count the residues as written; N and C are the ends. Square brackets hold non-standard residues; d marks the D form. Peptide text beside a SMILES is read from it. * marks the point of attachment. X1 = CC[C@H](C)[C@@H](N[*:1])[C@@H](O)CC(=O)O[C@H](C(=O)[C@H](C)C(=O)[*:2])C(C)C; NMeY = CN[C@@H](Cc1ccc(O)cc1)C(=O)O; dNMeL = CN[C@H](CC(C)C)C(=O)O; Pyruvoyl = CC(=O)C(=O)*
Reported Endpoint: Cmax (ng/mL)
# value in ng/mL; strip the unit string

Ask: Please report the recorded Cmax for CC[C@H](C)[C@H]1NC(=O)[C@@H](NC(=O)[C@@H](CC(C)C)N(C)C(=O)[C@@H]2CCCN2C(=O)C(C)=O)[C@@H](C)OC(=O)[C@H](Cc2ccc(OC)cc2)N(C)C(=O)[C@@H]2CCCN2C(=O)[C@H](CC(C)C)NC(=O)[C@@H](C)C(=O)[C@H](C(C)C)OC(=O)C[C@@H]1O [Plitidepsin, plitidepsin] (Pyruvoyl-P[dNMeL]T[X1]LP[NMeY](Me); ester 3-C (inferred); N-terminus assumed) .
Result: 71.7

====

Test: Plitidepsin whole blood pharmacokinetics, non-compartmental
Type: in vivo
Conditions: human, iv, Dose level 3 (RD cohort) 5.0/1.3/40.0, Day 1 of Cycle 1, NCA, mean (SD), n = 9, read-out: V z (apparent volume of distribution during terminal phase)
Numbered stars: 1 amine (or outer) side, 2 acyl side, 3 side chain; on linkers, the order of the positions; unused ones are H or OH. Bridge positions count the residues as written; N and C are the ends. Square brackets hold non-standard residues; d marks the D form. Peptide text beside a SMILES is read from it. * marks the point of attachment. X1 = CC[C@H](C)[C@@H](N[*:1])[C@@H](O)CC(=O)O[C@H](C(=O)[C@H](C)C(=O)[*:2])C(C)C; NMeY = CN[C@@H](Cc1ccc(O)cc1)C(=O)O; dNMeL = CN[C@H](CC(C)C)C(=O)O; Pyruvoyl = CC(=O)C(=O)*
Reported Endpoint: Vd (L)
// units = L; emit number, no label

Ask: Entry under review: CC[C@H](C)[C@H]1NC(=O)[C@@H](NC(=O)[C@@H](CC(C)C)N(C)C(=O)[C@@H]2CCCN2C(=O)C(C)=O)[C@@H](C)OC(=O)[C@H](Cc2ccc(OC)cc2)N(C)C(=O)[C@@H]2CCCN2C(=O)[C@H](CC(C)C)NC(=O)[C@@H](C)C(=O)[C@H](C(C)C)OC(=O)C[C@@H]1O [Plitidepsin, plitidepsin] (Pyruvoyl-P[dNMeL]T[X1]LP[NMeY](Me); ester 3-C (inferred); N-terminus assumed) . Reported Vd?
Result: 671

====

Experiment: Plitidepsin whole blood pharmacokinetics, non-compartmental
Assay type: in vivo
Conditions: human, iv, Dose level 1 4.0/1.0/40.0, Day 1 of Cycle 1, 3-h i.v. infusion, NCA, UPLC-MS/MS, mean (SD), n = 5
Numbered stars: 1 amine (or outer) side, 2 acyl side, 3 side chain; on linkers, the order of the positions; unused ones are H or OH. Bridge positions count the residues as written; N and C are the ends. Square brackets hold non-standard residues; d marks the D form. Peptide text beside a SMILES is read from it. * marks the point of attachment. X1 = CC[C@H](C)[C@@H](N[*:1])[C@@H](O)CC(=O)O[C@H](C(=O)[C@H](C)C(=O)[*:2])C(C)C; NMeY = CN[C@@H](Cc1ccc(O)cc1)C(=O)O; dNMeL = CN[C@H](CC(C)C)C(=O)O; Pyruvoyl = CC(=O)C(=O)*
Reported Endpoint: Cmax (ng/mL)
# number only, unit ng/mL dropped from output

Ask: Given the entry CC[C@H](C)[C@H]1NC(=O)[C@@H](NC(=O)[C@@H](CC(C)C)N(C)C(=O)[C@@H]2CCCN2C(=O)C(C)=O)[C@@H](C)OC(=O)[C@H](Cc2ccc(OC)cc2)N(C)C(=O)[C@@H]2CCCN2C(=O)[C@H](CC(C)C)NC(=O)[C@@H](C)C(=O)[C@H](C(C)C)OC(=O)C[C@@H]1O [Plitidepsin, plitidepsin] (Pyruvoyl-P[dNMeL]T[X1]LP[NMeY](Me); ester 3-C (inferred); N-terminus assumed) , report its measured Cmax.
Result: 83.8

====

Experiment: Plitidepsin whole blood pharmacokinetics, non-compartmental
Type: in vivo
Settings: human, iv, Dose level 2 4.0/1.3/40.0, Day 1 of Cycle 1, NCA, mean (SD), n = 3, read-out: HL (terminal half-life) (converted)
Numbered stars: 1 amine (or outer) side, 2 acyl side, 3 side chain; on linkers, the order of the positions; unused ones are H or OH. Bridge positions count the residues as written; N and C are the ends. Square brackets hold non-standard residues; d marks the D form. Peptide text beside a SMILES is read from it. * marks the point of attachment. X1 = CC[C@H](C)[C@@H](N[*:1])[C@@H](O)CC(=O)O[C@H](C(=O)[C@H](C)C(=O)[*:2])C(C)C; NMeY = CN[C@@H](Cc1ccc(O)cc1)C(=O)O; dNMeL = CN[C@H](CC(C)C)C(=O)O; Pyruvoyl = CC(=O)C(=O)*
Reported Endpoint: half-life
Please answer using the number first and the unit second.

Ask: Fill in the blank: the reported half-life of CC[C@H](C)[C@H]1NC(=O)[C@@H](NC(=O)[C@@H](CC(C)C)N(C)C(=O)[C@@H]2CCCN2C(=O)C(C)=O)[C@@H](C)OC(=O)[C@H](Cc2ccc(OC)cc2)N(C)C(=O)[C@@H]2CCCN2C(=O)[C@H](CC(C)C)NC(=O)[C@@H](C)C(=O)[C@H](C(C)C)OC(=O)C[C@@H]1O [Plitidepsin, plitidepsin] (Pyruvoyl-P[dNMeL]T[X1]LP[NMeY](Me); ester 3-C (inferred); N-terminus assumed) is ____.
Result: 46.2 h
